biological target: T1, FITC-labeled salmon calcitonin (sCT) fragment(22–32) (salmon, fluorescein isothiocyanate (FITC) label, position not stated); test: fluorescence polarisation; saturation binding format; 10 nM FITC-labeled peptide probe, purified receptor ECD at rising concentrations; 1 h at room temperature; anisotropy; mean pKD of at least three independent experiments; details: both partners purified
T1 construct: salmon calcitonin, residues 22-32 (11 amino acids); numbers count on: the mature 32-residue hormone; probably FITC at the N-terminus and a C-terminal amide, neither stated for this peptide; also called FITC-sCT(22–32); sCT(22–32); source: synthetic peptide (custom-synthesized, Genscript, HPLC-purified)
Attribute: pKD
Give only the figure.

amylin receptor 1 extracellular domain with calcitonin receptor N124D (hRAMP1.24–111-(GSA)3-hCTR.34–141.N124D-H6) (receptor, N-glycosylated (sites not given)) TTACQEANYGALLRELCLTQFQVDMEAVGETLWCDWGRTIRSYRELADCTWHMAEKLGCFWPNAEVDRFFLAVHGRYFRSCPISGRAVGSAGSAGSAIEPKPFLYVVGRKKMMDAQYKCYDRMQQLPAYQGEGPYCNRTWDGWLCWDDTPAGVLSYQFCPDYFPDFDPSEKVTKYCDEKGVWFKHPEDNRTWSNYTMCNAFTPEK
7.29
amylin receptor 1 extracellular domain with calcitonin receptor D97A (hRAMP1.24–111-(GSA)3-hCTR.34–141.D97A-H6) (receptor, N-glycosylated (sites not given)) TTACQEANYGALLRELCLTQFQVDMEAVGETLWCDWGRTIRSYRELADCTWHMAEKLGCFWPNAEVDRFFLAVHGRYFRSCPISGRAVGSAGSAGSAIEPKPFLYVVGRKKMMDAQYKCYDRMQQLPAYQGEGPYCNRTWDGWLCWDDTPAGVLSYQFCPAYFPDFDPSEKVTKYCDEKGVWFKHPENNRTWSNYTMCNAFTPEK
6.26

# ---- query binder ----
(Q) Can you look up the measured pKD of amylin receptor 1 extracellular domain with calcitonin receptor E123A (hRAMP1.24–111-(GSA)3-hCTR.34–141.E123A-H6) (receptor, N-glycosylated (sites not given)) TTACQEANYGALLRELCLTQFQVDMEAVGETLWCDWGRTIRSYRELADCTWHMAEKLGCFWPNAEVDRFFLAVHGRYFRSCPISGRAVGSAGSAGSAIEPKPFLYVVGRKKMMDAQYKCYDRMQQLPAYQGEGPYCNRTWDGWLCWDDTPAGVLSYQFCPDYFPDFDPSEKVTKYCDEKGVWFKHPANNRTWSNYTMCNAFTPEK for me?
(A) 6.44
